Where a name gives a salt, the structure may show the parent alone.
melting point vs 200 °C: less than gives Criterion met; not less than gives Criterion not met.

Prompt line: Strictly below 200 °C in melting point? Cl.O=S(=O)(c1c(F)cccc1Oc1cc(Cl)cc(Cl)c1)N1CCNCC1
Response line: Criterion not met

Prompt line: Consider Cl.O=[N+]([O-])c1ccc(Oc2cccc(C(F)(F)F)c2)c(S(=O)(=O)N2CCNCC2)c1 . Does its melting point lie strictly below 200 °C?
Response line: Criterion met

Prompt line: Is it true that melting point reported for N#Cc1ccc(Sc2cc(Cl)cc(Cl)c2)c(S(=O)(=O)N2CCNCC2)c1 (as salt: hydrochloride) is less than 200 °C?
Response line: Criterion met

Prompt line: # check: melting point < 200 °C for Cc1cc(C)cc(Oc2ccc(C(=O)NCCC(N)=O)cc2S(=O)(=O)N2CCNCC2)c1 (as salt: hydrochloride)
Response line: Criterion met

Prompt line: Decide: melting point of Cc1cc(Oc2ccc([N+](=O)[O-])cc2S(=O)(=O)N2CCNCC2)cc(C)c1C.Cl strictly below 200 °C?
Response line: Criterion not met

Prompt line: Given COc1ccccc1Oc1ccc([N+](=O)[O-])cc1S(=O)(=O)N1CCNCC1.Cl , is recorded melting point strictly lower than 200 °C?
Response line: Criterion met

Prompt line: API: query returns whether the molecule falls strictly under 200 °C in melting point. Query: Cl.O=[N+]([O-])c1ccc(Oc2ccc3c(c2)CCCC3)c(S(=O)(=O)N2CCNCC2)c1
Response line: Criterion met

Prompt line: Does the reported melting point of the following molecule sit strictly below 200 °C? COCCCN1CCN(S(=O)(=O)c2cc([N+](=O)[O-])ccc2Oc2cc(Cl)cc(Cl)c2)CC1
Response line: Criterion met

Prompt line: Given the entry COc1cc(C)cc(Oc2ccc([N+](=O)[O-])cc2S(=O)(=O)N2CCNCC2)c1.Cl , would its reported melting point be below 200 °C?
Response line: Criterion met

Prompt line: Problem: For the molecule Cl.O=[N+]([O-])c1ccc(Oc2c(F)c(F)c(F)c(F)c2F)c(S(=O)(=O)N2CCNCC2)c1 , is melting point under 200 °C?
Response line: Criterion not met

Prompt line: Hello, I'm reviewing records and need to know if melting point of Cc1cc(C)cc(Oc2cc(C)c(N)cc2S(=O)(=O)N2CCNCC2)c1.Cl.Cl is below 200 °C. Could you check?
Response line: Criterion met

Prompt line: Input Cl.O=[N+]([O-])c1cccc(Oc2ccc([N+](=O)[O-])cc2S(=O)(=O)N2CCNCC2)c1 ; condition: melting point strictly below 200 °C. Does it hold?
Response line: Criterion met
